# Subject Of Test: mAChR M4 (Homo sapiens)
# Construct: expressed in transfected cells; host or cells: CHO-K1 cells stably transfected with M4 cDNA and chimeric G-protein Gqi5
# Sequence (P08173 1-479): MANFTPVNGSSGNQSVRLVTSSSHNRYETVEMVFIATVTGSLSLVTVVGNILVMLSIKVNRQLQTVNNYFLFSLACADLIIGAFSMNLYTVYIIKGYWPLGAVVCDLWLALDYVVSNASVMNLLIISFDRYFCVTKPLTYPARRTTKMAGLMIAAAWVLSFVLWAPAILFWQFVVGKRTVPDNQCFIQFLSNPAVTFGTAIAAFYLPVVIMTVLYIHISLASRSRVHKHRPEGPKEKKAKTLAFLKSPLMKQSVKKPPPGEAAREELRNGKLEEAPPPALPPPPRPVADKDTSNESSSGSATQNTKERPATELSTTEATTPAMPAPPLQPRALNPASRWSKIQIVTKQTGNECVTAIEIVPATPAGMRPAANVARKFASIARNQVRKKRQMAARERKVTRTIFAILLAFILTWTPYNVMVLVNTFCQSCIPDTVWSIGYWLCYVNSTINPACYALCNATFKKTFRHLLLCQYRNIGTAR
# Assay Details: mAChR M4 cell-based functional assay (calcium mobilization, potentiation of EC20 acetylcholine response)
# Particulars: mAChR M4 cell-based functional assay; >10,000 estimated for low potency compounds without plateau; read-out: EC50
pEC50: −log10 of the molar value.
Binary classification by pEC50, with 7 as an inclusive lower bound for Met; all other cases are Not met.

# example entries with known answers
{"columns": ["Compound", "Answer Label"],
 "data": [
  ["Cc1nnc2sc(C(=O)N3CC(S(C)(=O)=O)C3)c(N)c2c1C [Example B406]", "Not met"],
  ["Cc1nnc2sc(C(=O)NCc3ccc(Br)cn3)c(N)c2c1C [Example B471]", "Not met"]
]}

Item Cc1nnc2sc(C(=O)NCc3ccc(-c4cc(O)ccc4Cl)cc3)c(N)c2c1C [Example B500] with pEC50 of 7 or above?
Not met

Threshold query (pEC50 >= 7) on Cc1nnc2sc(C(=O)NCc3ccc(-c4cncnc4)cc3)c(N)c2c1C [Example B462]
Met

Tell me whether pEC50 is at least 7 here: COC1(c2ccc(Cl)cc2)CN(C(=O)c2sc3nnc(C)c(C)c3c2N)C1 [Example B314]
Not met

Check this compound for pEC50 at or above 7: Cc1nnc2sc(C(=O)NCC(C)(C)O)c(N)c2c1C [Example B25]
Not met

For this compound, is measured pEC50 7 or higher? Cc1cc(NC(=O)c2sc3nnc(C)c(C)c3c2N)ccn1 [Example B88]
Not met

# bool: pEC50 of Cc1nnc2sc(C(=O)N3CC(NS(=O)(=O)c4cn(C)cn4)C3)c(N)c2c1C [Example B174] >= 7
Not met

Say whether Cc1nnc2sc(C(=O)NC3CCN(c4cccc(Cl)c4)C3)c(N)c2c1C (stereo not shown) [Example B268] shows pEC50 of 7 or more.
Not met

Please tell me: is the compound Cc1nnc2sc(C(=O)N3CCC(O)(c4ccccc4)C3)c(N)c2c1C (stereo not shown) [Example B279] at or over 7 in terms of pEC50?
Not met

Is pEC50 at least 7? Consider Cc1nnc2sc(C(=O)NC3CCN(C(=O)CC4CCCCC4)C3)c(N)c2c1C (stereo not shown) [Example B241]
Not met

Threshold query (pEC50 >= 7) on Cc1nnc2sc(C(=O)NC3CN(C(=O)c4c(F)cccc4F)C3)c(N)c2c1C [Example B408]
Not met

Quick check, pEC50 >= 7? Cc1nnc2sc(C(=O)N3CC(S(=O)(=O)c4ccc(F)cc4F)C3)c(N)c2c1C [Example B432]
Not met

Is it the case that CCCCCC(=O)NC1CCN(C(=O)c2sc3nnc(C)c(C)c3c2N)C1 (stereo not shown) [Example B218] has pEC50 reaching or exceeding 7?
Not met
